tested on: TK-10 renal; experiment: NCI-60 one-dose screen, 48 h (100 = growth as untreated, 0 = no growth, -100 = all killed); settings: 10 µM unless noted
This is part of a sample that, as a whole, favours compounds with a hit. Of some 83,000 tested, about 20% had one in any assay.
Field: growth. Provide a value for each of the molecules that follow.
Give bare numbers, in %.

O=C(NCc1cn(Cc2cccc(Oc3ccccc3)c2)nn1)c1cccnc1Nc1ccc(F)cc1	83.8

Consider the following items and state reported growth for each.
1. CN(C)CCCN(c1nc(C(Cl)(Cl)Cl)ns1)c1nc(C(Cl)(Cl)Cl)ns1
2. CCCC(=O)Oc1ccc(/C(=C(\C)c2ccccc2)c2ccc(OCCN(CC)CC)cc2)cc1
3. CN(CCCCN(C[C@H]1Cc2ncccc2CN1)[C@H]1CCCc2cccnc21)C1CCC(F)(F)CC1
4. CC(C)NCCCNC1=C(Cl)C(=O)c2ccccc2C1=O

1: 63.5; 2: 86; 3: 82.4; 4: 114

// each listed molecule needs a value for growth
1. O=C1CS/C(=N\Nc2cc(=O)[nH]c3ccccc23)N1c1ccccc1
2. COc1ccc(-c2nc3sccn3c2/C=C/C(=O)c2cc(F)cc(F)c2)cc1
3. O=C(Nc1ccc(Cl)c(Cl)c1)NS(=O)(=O)c1cnccc1Oc1ccc(F)cc1
4. COc1ccc(CNCCCN2C(=O)c3ccc4c5c(ccc(c35)C2=O)C(=O)N(CCCNCCCCNCCCN)C4=O)c(OC)c1OC
5. COc1ccc(/C=C2\Oc3cc(OCCCN4CCCC4)ccc3C2=O)c(OC)c1
6. CCN(CC)c1ccc(CNc2ccnc3ccccc23)cc1

111
164
42.3
25.7
103
60

For every item in the list below, what is its measured growth?
1. CC(C)(C)Nc1c(-c2cccs2)nc2ncccn12
2. COc1ccc(NC(=O)CSc2nc(-c3ccc(OC)c(OC)c3)cc(-c3cc(OC)c(OC)c(OC)c3)n2)cc1
3. O=C(Nc1ccc(NCCN2CCOCC2)nc1)c1ccc([N+](=O)[O-])cc1
4. NC1N=C(SCC(=O)N2CCN(c3cc4c(cc3F)c(=O)c(C(=O)O)cn4C3CC3)CC2)NC(=O)/C1=C/c1ccc(Cl)cc1 (configuration not stated)
5. COc1ccc(-n2c(-c3ccccc3)c(-c3ccccc3)c3c(SCC(=O)N/N=C/c4ccc(Cl)cc4)ncnc32)cc1
6. CCc1ccc(-c2ccc(=O)n(-c3ccc(S(N)(=O)=O)cc3)n2)cc1

1: 101; 2: 96.8; 3: 114; 4: 107; 5: 108; 6: 76.8

Parameters: items (list). Returns: growth for each item.
1. COc1ccc(-c2nc(SCCC(C)C)nc(Nc3ccc(F)c(Cl)c3)c2C#N)cc1
2. O=C(O)C1CCCCN1c1nc(Cl)nc(Cl)n1 (configuration not stated)

[62.6, 103]
